property: melting point

Consider the worked cases shown below.
[[record]]
compound = "Cc1nc2cc(NC(=O)c3ccc(Cl)cc3Cl)ccc2n1C"
property = "melting point"
datavalue = "275 to 277 °C"

[[record]]
compound = "COc1ccc(C(=O)Nc2ccc(C(C)=O)cc2)cc1"
property = "melting point"
datavalue = "222 to 223 °C"

[[record]]
compound = "CCCc1ccc(C(=O)Nc2ccc3c(c2)CCC3=O)cc1"
property = "melting point"
datavalue = "181 to 184 °C"

[[record]]
compound = "Cc1nc2cc(N(C)C(=O)c3ccc(Cl)cc3Cl)ccc2n1C"
property = "melting point"
datavalue = "245 to 247 °C"

[[record]]
compound = "O=C(Nc1ccc2c(c1)CCCC2=O)c1cc(Cl)cc(Cl)c1"
property = "melting point"
datavalue = "226 to 228 °C"

[[record]]
compound = "CCCc1ccc(S(=O)(=O)Nc2ccc(OC)nc2)cc1"
property = "melting point"
datavalue = "93 to 94 °C"

[[record]]
compound = "COc1cccc(C(=O)Nc2ccc3sc(C)nc3c2Cl)c1"
property = "melting point"
datavalue = "177 to 179 °C"

[[record]]
compound = "CCCc1ccc(S(=O)(=O)NCc2ccccn2)cc1"
property = "melting point"
datavalue = "109 °C"

[[record]]
compound = "CC1Nc2cc(NC(=O)c3ccc(-c4ccccc4)cc3)ccc2N1C (stereo not drawn)"
property = "melting point"
datavalue = "272 to 274 °C"

[[record]]
compound = "O=C(NCCc1cccs1)c1ccc(-c2ccccc2)cc1"
property = "melting point"
datavalue = "164 to 166 °C"


For each of the compounds below, state melting point.
1. O=C(Nc1ccc(C(=O)c2ccccc2)cc1)c1ccc(-c2ccccc2)cc1
2. CC(=O)c1ccc(NC(=O)c2cc(Cl)cc(Cl)c2)cc1

Solution:
1: 212 to 213 °C; 2: 199 to 200 °C

Look at each compound and report its melting point.
1. O=C(NCCc1cccs1)c1cc(Cl)cc(Cl)c1
2. CCCc1ccc(C(=O)Nc2ccc3c(c2)nc(C)n3C)cc1

Solution:
1: 100 to 102 °C; 2: 214 to 218 °C

I'm hoping you can list melting point for every compound here, please.
1. Cc1nc2c(Cl)c(NC(=O)Cc3ccc(Cl)cc3Cl)ccc2s1
2. Cc1nc2c(Cl)c(NC(=O)c3cc(Cl)ccc3Cl)ccc2s1

Solution:
["257 to 258 °C", "175 °C"]

Go through the list and state melting point for each entry.
1. CCCc1ccc(C(=O)Nc2ccc3sc(C)nc3c2Cl)cc1
2. CC1Nc2ccc(NC(=O)c3ccc(-c4ccccc4)cc3)cc2N1C (stereo not drawn)
3. Cc1nc2c(Cl)c(NC(=O)Cc3ccc(Cl)cc3)ccc2s1
4. O=C(Nc1ccc2c(c1)CCC2=O)c1cc(Cl)ccc1Cl

Solution:
["184 °C", "270 to 270.3 °C", "227 to 229 °C", "218 to 221 °C"]

Give measured melting point for every item shown.
1. O=C(c1ccccc1)c1ccc(NC(=O)c2cc(Cl)ccc2Cl)cc1
2. COc1cccc(C(=O)Nc2ccc(C(=O)c3ccccc3)cc2)c1
3. COc1ccc(C(=O)Nc2ccc3c(c2)CCC3=O)cc1
4. COc1ccc(C(=O)Nc2ccc(C(=O)c3ccccc3)cc2)cc1

Solution:
150 to 153 °C
139 to 141 °C
237 to 238 °C
171 to 174 °C
